- SYSTEM: Bromodomain adjacent to zinc finger domain protein 2B (Homo sapiens) (UniProt Q9UIF8)
- Sequence (Q9UIF8 whole entry, looked up, the tested form may be a part): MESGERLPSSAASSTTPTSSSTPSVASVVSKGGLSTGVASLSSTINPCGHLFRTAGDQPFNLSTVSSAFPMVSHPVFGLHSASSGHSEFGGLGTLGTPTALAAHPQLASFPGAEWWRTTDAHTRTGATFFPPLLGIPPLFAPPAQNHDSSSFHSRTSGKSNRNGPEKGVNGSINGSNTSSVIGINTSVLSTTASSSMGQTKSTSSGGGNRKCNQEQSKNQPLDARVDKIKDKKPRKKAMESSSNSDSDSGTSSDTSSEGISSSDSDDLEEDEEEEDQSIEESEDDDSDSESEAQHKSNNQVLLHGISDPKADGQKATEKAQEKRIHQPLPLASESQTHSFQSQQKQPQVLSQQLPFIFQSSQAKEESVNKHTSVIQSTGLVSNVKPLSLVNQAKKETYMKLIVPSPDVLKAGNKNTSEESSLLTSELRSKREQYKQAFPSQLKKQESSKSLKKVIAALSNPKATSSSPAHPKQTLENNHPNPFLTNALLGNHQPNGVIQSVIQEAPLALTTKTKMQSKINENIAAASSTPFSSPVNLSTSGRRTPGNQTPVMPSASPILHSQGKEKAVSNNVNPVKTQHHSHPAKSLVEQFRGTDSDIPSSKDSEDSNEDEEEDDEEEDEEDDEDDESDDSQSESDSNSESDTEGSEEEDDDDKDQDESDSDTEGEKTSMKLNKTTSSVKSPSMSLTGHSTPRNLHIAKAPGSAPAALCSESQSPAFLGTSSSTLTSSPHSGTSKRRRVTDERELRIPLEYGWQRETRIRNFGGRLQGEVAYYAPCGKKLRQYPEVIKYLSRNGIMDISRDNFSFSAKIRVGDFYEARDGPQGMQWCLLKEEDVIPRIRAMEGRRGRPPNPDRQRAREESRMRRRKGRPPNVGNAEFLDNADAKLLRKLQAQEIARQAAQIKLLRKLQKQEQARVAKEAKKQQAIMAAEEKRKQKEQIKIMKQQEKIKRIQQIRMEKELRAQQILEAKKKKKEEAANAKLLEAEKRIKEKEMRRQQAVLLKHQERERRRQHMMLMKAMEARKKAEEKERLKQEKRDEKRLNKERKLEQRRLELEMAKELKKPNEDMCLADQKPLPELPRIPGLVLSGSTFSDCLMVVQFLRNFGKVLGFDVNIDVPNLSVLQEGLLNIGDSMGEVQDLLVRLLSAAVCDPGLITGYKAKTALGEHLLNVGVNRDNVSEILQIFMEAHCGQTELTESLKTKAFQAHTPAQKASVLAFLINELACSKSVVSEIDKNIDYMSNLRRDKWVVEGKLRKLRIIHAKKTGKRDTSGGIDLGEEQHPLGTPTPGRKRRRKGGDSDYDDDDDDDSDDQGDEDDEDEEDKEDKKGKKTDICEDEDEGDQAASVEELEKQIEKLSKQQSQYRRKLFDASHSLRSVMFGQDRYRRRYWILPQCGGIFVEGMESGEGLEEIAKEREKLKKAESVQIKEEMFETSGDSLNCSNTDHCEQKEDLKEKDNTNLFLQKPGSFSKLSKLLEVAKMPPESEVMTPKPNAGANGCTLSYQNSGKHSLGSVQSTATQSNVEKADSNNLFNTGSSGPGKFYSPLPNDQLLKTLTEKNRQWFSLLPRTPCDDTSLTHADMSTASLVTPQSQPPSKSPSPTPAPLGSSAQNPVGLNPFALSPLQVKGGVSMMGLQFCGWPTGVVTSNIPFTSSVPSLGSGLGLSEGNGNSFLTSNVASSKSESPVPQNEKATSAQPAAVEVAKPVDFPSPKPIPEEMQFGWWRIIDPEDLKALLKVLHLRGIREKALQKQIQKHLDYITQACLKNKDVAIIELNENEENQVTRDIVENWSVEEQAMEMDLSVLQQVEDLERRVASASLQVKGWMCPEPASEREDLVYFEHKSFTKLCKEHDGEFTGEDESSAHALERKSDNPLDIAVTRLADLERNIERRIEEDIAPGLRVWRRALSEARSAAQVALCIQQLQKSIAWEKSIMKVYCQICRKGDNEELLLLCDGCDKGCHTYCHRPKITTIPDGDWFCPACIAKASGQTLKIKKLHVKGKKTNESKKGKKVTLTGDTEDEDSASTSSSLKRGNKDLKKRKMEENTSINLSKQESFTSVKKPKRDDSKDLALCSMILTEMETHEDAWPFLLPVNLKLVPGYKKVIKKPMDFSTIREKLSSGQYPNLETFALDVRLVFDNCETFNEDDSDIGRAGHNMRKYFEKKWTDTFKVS
- TEST_NAME: qHTS Assay for Inhibitors of BAZ2B; also: nearly all actives have a fitted effect of over 60% in size
- CONDITION_SET: AlphaScreen BAZ2B-H3K14Ac peptide displacement; series mostly up to 114 µM
Hit rate of the full screen: of about 360,000 compounds, about 16,000 (4.4%) were called active. Roughly 9% stayed inconclusive and do not appear here. Calls follow the shape of the dose curve; as a rule, active = well fitted inhibition curve with a large enough effect; inconclusive = small, poorly fitted or top-dose-only effect; inactive = no such curve, though single readings can be large or run the other way. Only a selection was taken, and actives are over-represented in it overall.
Returns: one label drawn from yes (active), no (inactive)

// known answers, use as guide
> print(dat)
                                   compound  classification
1  COc1cccc(NC(=O)C(=O)NCC(c2ccc3c(c2)OCO3)N2CCN(C)CC2)c1 (stereo not given)              no
2  COc1ccccc1N1CCN(C(CNC(=O)C(=O)NCc2ccc(C)cc2)c2cccnc2)CC1 (stereo not given)              no
3  CCOC(=O)N1CCN(C(c2cccnc2)c2ccc3cccnc3c2O)CC1 (stereo not given)             yes
4  COc1ccccc1-c1cc(C(F)(F)F)nc(S(=O)(=O)CCCC(=O)Nc2ccc(F)cc2F)n1              no
5  N#Cc1ccccc1CN1C(=O)S/C(=C/c2cccn2-c2cccc(C(=O)O)c2)C1=O             yes

Ask | Hi, do you know how N#CC1=C(N)N(c2ccccc2)C2=C(C(=O)CCC2)C1c1ccccc1 (stereo not given) came out in this test?
Reply | no

Ask | # repeat for CCOC(=O)N1CCN(C(=O)CSc2nc(=O)n3cccc(C)c3n2)CC1
Reply | no

Ask | # repeat for COc1ccc(-c2nc3scc(CCNS(=O)(=O)c4cc(F)ccc4OC)n3n2)cc1OC
Reply | no

Ask | # repeat for CCOc1ccc(C2C(C#N)=C(N)N(N(C)C)C3=C2C(=O)CCC3)cc1 (stereo not given)
Reply | no

Ask | # repeat for COc1ccc(CCNC(=O)c2ccc3c(c2)sc2nc(-c4ccc(C)cc4)cn23)cc1OC
Reply | no

---

- SYSTEM: Bromodomain adjacent to zinc finger domain protein 2B (Homo sapiens) (UniProt Q9UIF8)
- TEST_NAME: qHTS Assay for Inhibitors of BAZ2B; also: nearly all actives have a fitted effect of over 60% in size
- CONDITION_SET: AlphaScreen BAZ2B-H3K14Ac peptide displacement; series mostly up to 114 µM
Among all 360,000 compounds or so, about 16,000 (4.4%) were called active. About 9% were inconclusive and are not listed. Calls come from the whole dose curve; as a rule, active = well fitted inhibition curve with a large enough effect; inconclusive = small, poorly fitted or top-dose-only effect; inactive = no such curve, though single readings can be large or run the other way. This is one part of a sample in which actives are shown more often than they occur.
Returns: one label drawn from class 1 = active, class 0 = inactive

Ask | Hi, do you know how CC(C)(C)NC(=O)C(=O)NN=C1CCCCCCC1 came out in this test?
Reply | class 0

Ask | # repeat for Cc1cccc(NC(=O)c2nc(S(=O)(=O)Cc3ccccc3)ncc2Cl)c1
Reply | class 0

---

- SYSTEM: Bromodomain adjacent to zinc finger domain protein 2B (Homo sapiens) (UniProt Q9UIF8)
- TEST_NAME: qHTS Assay for Inhibitors of BAZ2B; also: nearly all actives have a fitted effect of over 60% in size
- CONDITION_SET: AlphaScreen BAZ2B-H3K14Ac peptide displacement; series mostly up to 114 µM
The campaign covered roughly 360,000 compounds. About 16,000 (4.4%) were called active. About 9% were inconclusive and are not listed. Calls follow the shape of the dose curve; as a rule, active = well fitted inhibition curve with a large enough effect; inconclusive = small, poorly fitted or top-dose-only effect; inactive = no such curve, though single readings can be large or run the other way. The list comes from a sample in which actives are over-represented; it also holds close analogues and randomly drawn compounds.
Returns: one label drawn from 1 (yes) for active, 0 (no) for inactive

Ask | Hi, do you know how COC(=O)C(NC(C)=O)(Nc1nc2c(s1)CCCC2)C(F)(F)F (configuration not stated) came out in this test?
Reply | 1 (yes)

Ask | # repeat for Cc1ccc(Cl)cc1N1CCN(C(=O)c2cnc3c(-c4ccc(F)cc4)c(C)nn3c2C)CC1
Reply | 0 (no)

Ask | # repeat for O=C(Nc1nc2c(s1)CCCC2)c1ccccc1F
Reply | 0 (no)
